Tgt: recombinant human IL-5 protein (human) (UniProt P05113)
Protocol Summary: SPR, human IL-5 immobilized on chip, 1:1 fit
Readout Name: koff

>>> value("102A2E11B6 (murine hybridoma lead antibody) (antibody, V domains shown) VH: QVQLRQSGPGLVQPSQSLSITCTVSGFSLTSYGVHWVRQSPGKGLEWLGVIWSGGSTDYNAVFMSRLSISKDSSKSQVFFKMNSLQTDDTAIYYCARNRYVLDYWGQGTSVTVSS VL: DIVMTQSPSSLSVSAGERVTMRCKSSQSLLTSGDQKNHLAWYQQKPGQPPKLLIYGASTRESGVPDRFTGSGSGTDFTLTITSVQAEDLAVYYCQNDHSFPLTFGAGTKLELK")
"2.32e-05 s⁻¹"
>>> value("151G3B11 (murine hybridoma lead antibody) (antibody, V domains shown) VH: EVHLQQSGAELVKPGASVKLSCTASGFNIKDYYMHWVKQRTEQGLEWIGRIDPEDGETKYAPKFQGQATITADTSSNTANLQLSSLTSEDTAVYYCARYGNFPDYWGPGTTLTVSS VL: QIVLTQSPALMSASPGEKVTMTCSASSSVSYMYWYQQKPRSSPKPWIYLTSKLASGVPARFSGSGSGTSYSLTISSMEAEDAATYYCQQWNSNPYTFGGGTKLEIK")
"9.04e-06 s⁻¹"
>>> value("69F2F3 (murine hybridoma lead antibody) (antibody, V domains shown) VH: QVQLKQSGPGLVQPSQSLSITCTVSGFSLSNYGVHWVRQSPGKGLEWLGVIWSGGSTDYNAAFKSRLSITKDNSKSQVVFRMNSLQTDDTATYYCARNKDFLDYWGQGTKFTVSS VL: DIVMTQSPSSLTVTAGEKVTMTCKSSQGLLNSGNQKNYLTWYQQKPGQPPKLLIYWASTRESGVPDRFTGSGSGTDFTLTISSVQAEDLAVYYCQNDYHFPLTFGAGTKLELK")
"8.14e-06 s⁻¹"
>>> value("154F10G8 (murine hybridoma lead antibody) (antibody, V domains shown) VH: QVQLQQPGAELVKPGASVKLSCKASGYTFTSYWITWVKQRPGQGLEWIGDIYPGSGSTFYNEKFKSEATLTVDTSSSTAYMQLSSLTSEDSAVFYCSTETTLGYWGQGTTLTVSS VL: DVLMTQTPLSLPVSLGDQASISCRSSQSIVHNNGNTYLEWYLQKPGQSPKLLIYKVSNRFSGVPDRFSGSGSGTDFTLKISRVEAEDLGVYYCFQGSHVPFTFGSGTKLEIK")
"6.65e-05 s⁻¹"
>>> value("147D7H2 (murine hybridoma lead antibody) (antibody, V domains shown) VH: EVQLQQSGAELVKPGASVKLSCTASGFNIKDYFIHWVKQRTEQGLEWIGRIDTEDGETKYAPKFQGKATITIDTSSNTAYLYFSSLTSEDTAMYYCARYGNYVAMDYWGQGTSVTVSS VL: QIVLTQSPALMSASPGEKVTMTCSASSSVSYMFWYQQKPSSSPKPWIYLTSKLASGVPARFSGSGSGTSYSLTISSVEAEDAATYYCQQWNSNPYTFGGGTKLEIK")
"< 1e-05 s⁻¹"
